For each record, write down the corresponding melting point.

GET /values?readout=melting point&item= COc1cc(C)c(C(=O)c2c(Cl)cncc2C(F)(F)F)c(OC)c1OC [compound No. 102]
75 to 77 °C

GET /values?readout=melting point&item= COc1cc(C)c(C(=O)c2c(C(F)(F)F)cc(Cl)nc2Cl)c(OC)c1OC [compound No. 3]
81 to 83 °C

GET /values?readout=melting point&item= COc1cc(C)c(C(=O)c2c(Cl)cncc2Cl)c(OC)c1OC [compound No. 191]
109 to 111 °C

GET /values?readout=melting point&item= COc1cc(C)c(C(=O)c2c(OC)cnc(Cl)c2Cl)c(OC)c1OC [compound No. 193]
98 to 99 °C

----------
For each record, write down the corresponding melting point.

GET /values?readout=melting point&item= COc1cc(C)c(C(=O)c2c(C(F)(F)F)ccnc2Cl)cc1OCc1ccccc1
116 to 117 °C

GET /values?readout=melting point&item= COc1cc(C)c(C(=O)c2c(Cl)cnc(Cl)c2Cl)c(OC)c1OC
60 to 61 °C

GET /values?readout=melting point&item= COc1cc(C)c(C(=O)c2c(OC)cnc(Cl)c2C(F)(F)F)c(OC)c1OC
117 to 119 °C

GET /values?readout=melting point&item= COc1cc(C)c(C(=O)c2c(OC)cnc(Br)c2Cl)c(OC)c1OC
97 to 99 °C

GET /values?readout=melting point&item= COc1cc(C)c(C(=O)c2c(C(F)(F)F)ccnc2Cl)c(OC)c1OC
110 to 112 °C

GET /values?readout=melting point&item= COc1cc(C)c(C(=O)c2c(OC)cnc(Br)c2C(F)(F)F)c(OC)c1OC
145 to 147 °C

GET /values?readout=melting point&item= COc1cc(C)c(C(=O)c2c(C(F)(F)F)ccnc2OC)cc1OC
125 to 127 °C

GET /values?readout=melting point&item= COc1cc(C)c(C(=O)c2c(OC)cncc2C(F)(F)F)c(OC)c1OC
103 to 106 °C

GET /values?readout=melting point&item= COc1cc(C)c(C(=O)c2c(C)cncc2Br)c(OC)c1OC
88 to 93 °C

GET /values?readout=melting point&item= COc1cc(C)c(C(=O)c2c(Cl)nc(Cl)c(C(C)=O)c2C(F)(F)F)c(OC)c1OC
109 to 112 °C

GET /values?readout=melting point&item= COc1cc(C)c(C(=O)c2cnccc2C(F)(F)F)c(OC)c1OC
59 to 62 °C

GET /values?readout=melting point&item= COc1cc(C)c(C(=O)c2c(Cl)cnc(Cl)c2C(F)(F)F)c(OC)c1OC
106 to 109 °C
